# SYSTEM_UNDER_TEST: Tyrosine-protein kinase ABL1 [T315I] (Homo sapiens, UniProt P00519, T315I)
# MEASUREMENT_PROTOCOL: Kinase Inhibition Assays
pIC50: −log10 of the molar value.
ASSAY_READOUT: pIC50

compound="C=CC(=O)N1CCC(n2nc(C#Cc3cc(C(=O)Nc4ccc(CN5CCN(C)CC5)c(C(F)(F)F)c4)ccc3C)c3c(N)ncnc32)CC1 [US10266537, Compound 121]" recorded_number=6.88
